These measurements were taken from the supplement of paper PMC12669032.

- Tested on: Parabacteroides merdae
- Method: growth AUC relative to DMSO control (median of replicates) (fraction); higher = more growth (less inhibition), active = hit call of the paper
- Protocol conditions: 20 µM; 24 h
Measure name: growth AUC

> print(dat)
                                    compound            assay.target  assay.result
 1  CC(C1CC1)C(O)(Cn1cncn1)c1ccc(Cl)cc1 (mixture of isomers)  Parabacteroides merdae         0.988
 2  COCc1c(F)c(F)c(COC(=O)C2C(C=C(C)C)C2(C)C)c(F)c1F (configuration not stated)  Parabacteroides merdae          1.02
 3               CCCCc1c(C)nc(N(C)C)[nH]c1=O  Parabacteroides merdae          1.01
 4  COc1ncc(F)c2nc(S(=O)(=O)Nc3c(F)cccc3F)nn12  Parabacteroides merdae          1.01
 5  CCc1cnc(C2=NC(C)(C(C)C)C(=O)N2)c(C(=O)O)c1 (configuration not stated)  Parabacteroides merdae          1.01
 6                                    CN=C=S  Parabacteroides merdae             1
 7       COP(=S)(OC)Oc1ccc(S(C)(=O)=O)c(C)c1  Parabacteroides merdae         0.993
 8  O=C(NC(=O)c1c(F)cccc1F)Nc1ccc(CO/N=C(\c2ccc(Cl)cc2)C2CC2)cc1  Parabacteroides merdae         0.975
 9  CNC(=O)ON=C(CS(C)=O)C(C)(C)C (configuration not stated)  Parabacteroides merdae          1.01
10  CCOP(=S)(Oc1cnc(C(C)(C)C)nc1)OC(C)C (configuration not stated)  Parabacteroides merdae         0.995
11                   Oc1ccc(Cc2ccc(O)cc2)cc1  Parabacteroides merdae         0.994
12  CC(C)N(C(=O)COc1nnc(C(F)(F)F)s1)c1ccc(F)cc1  Parabacteroides merdae         0.986
13  CC(C)=CC1C(C(=O)OC(C#N)c2cccc(Oc3ccccc3)c2)C1(C)C (mixture of isomers)  Parabacteroides merdae             1
14       COc1cc(OC)nc(Sc2cccc(Cl)c2C(=O)O)n1  Parabacteroides merdae         0.975
15  CC(C)(C)C(O)C(Oc1ccc(Cl)cc1)n1cncn1 (configuration not stated)  Parabacteroides merdae         0.998
16  CCS(=O)(=O)c1cccnc1S(=O)(=O)NC(=O)Nc1nc(OC)cc(OC)n1  Parabacteroides merdae         0.993
17        CC1(C(=O)Nc2ccc(O)c(Cl)c2Cl)CCCCC1  Parabacteroides merdae         0.993

====

- Test system: Eubacterium rectale
- Method: growth AUC relative to DMSO control (median of replicates) (fraction); higher = more growth (less inhibition), active = hit call of the paper;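 active = AUC reduced over 20% with Padj below 0.05 in at least 2 of 3 replicates; inactive = otherwise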
- Protocol conditions: 20 µM; 24 h
Classes used: TRUE for active, FALSE for inactive

> print(dat)
                                    compound         assay.target  class.label
 1        CNC(=O)Oc1cc(C)c(S(C)(=O)=O)c(C)c1  Eubacterium rectale        FALSE
 2                             Cc1cccc(C)c1N  Eubacterium rectale        FALSE
 3                      O=C(O)c1cc(Cl)ccc1Cl  Eubacterium rectale        FALSE
 4  CC(Cc1ccc(C(C)(C)C)cc1)CN1C[C@@H](C)O[C@@H](C)C1 (some centres not stated)  Eubacterium rectale        FALSE
 5                      CC(C)OC(=O)Nc1ccccc1  Eubacterium rectale        FALSE
 6  O=S1(=O)OCC2C(CO1)C1(Cl)C(Cl)=C(Cl)C2(Cl)C1(Cl)Cl (configuration not stated)  Eubacterium rectale        FALSE
 7  O=C(NC(=O)c1c(F)cccc1F)Nc1cc(Cl)c(OC(F)(F)C(F)C(F)(F)F)cc1Cl (configuration not stated)  Eubacterium rectale        FALSE
 8                                 C=CC(N)=O  Eubacterium rectale        FALSE
 9  Cc1ccc(-c2c(Cl)nc(C#N)n2S(=O)(=O)N(C)C)cc1  Eubacterium rectale        FALSE
10              Clc1c(Cl)c(Cl)c(Cl)c(Cl)c1Cl  Eubacterium rectale        FALSE
11       COP(=O)(OC)O/C(=C/Br)c1ccc(Cl)cc1Cl  Eubacterium rectale        FALSE
12                     CCSC(=O)N(CC)C1CCCCC1  Eubacterium rectale        FALSE
13              CCN(CC)C(=S)[S-].O.O.O.[Na+]  Eubacterium rectale        FALSE
14          CCOP(=S)(OCC)Oc1cc(-c2ccccc2)on1  Eubacterium rectale        FALSE
15  OC(c1ccc(Cl)cc1)(c1ccc(Cl)cc1)C(Cl)(Cl)Cl  Eubacterium rectale        FALSE
16                     Cc1cc(Cl)ccc1N=CN(C)C  Eubacterium rectale        FALSE
17  COP(=S)(OC)Oc1ccc(S(C)=O)c(C)c1 (configuration not stated)  Eubacterium rectale        FALSE
18             CNC(=O)Oc1cccc(N=CN(C)C)c1.Cl  Eubacterium rectale        FALSE
19       ClC(Cl)=C(c1ccc(Cl)cc1)c1ccc(Cl)cc1  Eubacterium rectale        FALSE
20                    CN(C)C(=S)SSC(=S)N(C)C  Eubacterium rectale        FALSE
21          CCOP(=S)(OCC)Oc1nc(Cl)c(Cl)cc1Cl  Eubacterium rectale        FALSE
22              Cc1cc(Cl)ccc1O[C@H](C)C(=O)O  Eubacterium rectale        FALSE
23               COCCN(C(=O)CCl)c1c(C)cccc1C  Eubacterium rectale        FALSE
24  CCCCC(C#N)(Cn1cncn1)c1ccc(Cl)cc1 (configuration not stated)  Eubacterium rectale        FALSE
25  Cc1cc(C(C#N)c2ccc(Cl)cc2)c(Cl)cc1NC(=O)c1cc(I)cc(I)c1O (configuration not stated)  Eubacterium rectale         TRUE
26  COP(=S)(Oc1cc(Cl)c(Br)cc1Cl)c1ccccc1 (configuration not stated)  Eubacterium rectale        FALSE
27      COC(=O)Nc1cccc(OC(=O)Nc2cccc(C)c2)c1  Eubacterium rectale        FALSE

====

Reported growth AUC values are given for each entry in this list.
- System: Clostridium difficile
- Method: growth AUC relative to DMSO control (median of replicates) (fraction); higher = more growth (less inhibition), active = hit call of the paper
- Protocol conditions: 20 µM; 24 h
Measure name: growth AUC

> print(dat)
                       structure.string           assay.target  assay.result
1  Nc1c([N+](=O)[O-])ccc(Oc2ccccc2)c1Cl  Clostridium difficile         0.982
2            O=C(O)COc1cc(Cl)c(Cl)cc1Cl  Clostridium difficile          1.01
3          CCOP(=S)(OCC)SCSc1ccc(Cl)cc1  Clostridium difficile             1

====

- Test system: Roseburia intestinalis
- Method: growth AUC relative to DMSO control (median of replicates) (fraction); higher = more growth (less inhibition), active = hit call of the paper
- Protocol conditions: 20 µM; 24 h
Measure name: growth AUC

> print(dat)
                                    molecule      assay.result
 1             COP(=S)(OC)Oc1cc(Cl)c(I)cc1Cl  0.974 (inactive)
 2  CCOP(=S)(OCC)Oc1ccc(S(C)=O)cc1 (stereo not given)   1.02 (inactive)
 3  CC(Cc1ccc(C(C)(C)C)cc1)CN1CCCCC1 (stereo not given)  0.976 (inactive)
 4  CCOP(=S)(OCC)SCS(=O)CC (stereo not given)  0.995 (inactive)
 5          Cc1[nH]c(=O)n(C(C)(C)C)c(=O)c1Cl  0.986 (inactive)
 6               CNC(=O)Oc1cccc2c1OC(C)(C)C2  0.992 (inactive)
 7                        Clc1ccc(Cl)c(Cl)c1  0.989 (inactive)
 8                      CNC(=O)CSP(=O)(OC)OC   1.02 (inactive)
 9                                CCN(CC)N=O      1 (inactive)
10  CCS(=O)Cc1ccccc1OC(=O)NC (stereo not given)   1.02 (inactive)
11                  CNC(=O)N(C)c1nc2ccccc2s1  0.989 (inactive)
12      COC(=O)NC(=S)Nc1ccccc1NC(=S)NC(=O)OC  0.979 (inactive)
13  CCOC(=O)CC(SP(=S)(OC)OC)C(=O)OCC (stereo not given)   0.99 (inactive)
14                               Nc1ncn[nH]1  0.985 (inactive)
15  CCOP(=S)(Oc1cnc(C(C)(C)C)nc1)OC(C)C (stereo not given)   1.01 (inactive)
